All values here come from patent US8816055.

Target: T1, pKal catalytic domain Mutant 1 (human, UniProt P03952 391-638, limits assumed)
T1 construct: catalytic domain with His tag from Pichia pastoris
T1 sequence (P03952 other isoform, or with tags, fused parts or gaps mutant limits assumed): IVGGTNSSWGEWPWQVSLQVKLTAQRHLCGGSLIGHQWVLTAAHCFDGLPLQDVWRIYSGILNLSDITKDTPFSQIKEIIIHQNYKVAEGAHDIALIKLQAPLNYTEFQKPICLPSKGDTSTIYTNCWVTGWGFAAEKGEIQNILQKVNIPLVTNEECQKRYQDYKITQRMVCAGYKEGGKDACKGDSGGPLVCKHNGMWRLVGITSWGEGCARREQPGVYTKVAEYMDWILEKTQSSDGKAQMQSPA
Test: Ki,app, enzyme inhibition
endpoint name: Ki (nM)
Give bare numbers, in nM.

Example entries and their recorded answers appear below.
M35-G04 (Fab, V domains shown, also called 559A-M35-G04; 559A-M0035-G04) VH: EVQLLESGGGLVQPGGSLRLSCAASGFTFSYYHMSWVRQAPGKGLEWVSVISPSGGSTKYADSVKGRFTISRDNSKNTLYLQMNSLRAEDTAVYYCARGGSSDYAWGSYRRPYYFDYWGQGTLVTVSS VL: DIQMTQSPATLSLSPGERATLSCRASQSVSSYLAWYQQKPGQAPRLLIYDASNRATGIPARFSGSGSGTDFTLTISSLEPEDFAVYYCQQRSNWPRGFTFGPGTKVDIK ... 0.09
X101-A01 (antibody, V domains shown, also called 559A-X0101-A01) VH: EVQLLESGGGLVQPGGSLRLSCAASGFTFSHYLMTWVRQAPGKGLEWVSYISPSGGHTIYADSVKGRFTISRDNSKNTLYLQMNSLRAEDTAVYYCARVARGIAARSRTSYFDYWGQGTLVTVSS VL: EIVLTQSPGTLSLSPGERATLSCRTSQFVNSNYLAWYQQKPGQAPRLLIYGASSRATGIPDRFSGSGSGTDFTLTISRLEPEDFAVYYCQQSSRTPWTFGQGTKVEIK ... 14

Okay, now this binder:
Request: Consider the binder X115-B07 (antibody, V domains shown, also called 559A-X115-B07; 559A-X0115-B07) VH: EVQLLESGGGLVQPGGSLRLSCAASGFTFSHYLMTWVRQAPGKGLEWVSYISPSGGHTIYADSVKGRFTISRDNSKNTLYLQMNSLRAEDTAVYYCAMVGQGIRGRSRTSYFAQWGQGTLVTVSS VL: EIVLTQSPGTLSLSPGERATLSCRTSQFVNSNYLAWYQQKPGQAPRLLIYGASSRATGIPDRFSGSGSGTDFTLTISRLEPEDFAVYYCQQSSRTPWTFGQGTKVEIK and give its recorded Ki.
Result: 4.7
